Consider compounds characterized by their IC50 with NAMPT (Homo sapiens, UniProt P43490).
Sequence (P43490 whole entry): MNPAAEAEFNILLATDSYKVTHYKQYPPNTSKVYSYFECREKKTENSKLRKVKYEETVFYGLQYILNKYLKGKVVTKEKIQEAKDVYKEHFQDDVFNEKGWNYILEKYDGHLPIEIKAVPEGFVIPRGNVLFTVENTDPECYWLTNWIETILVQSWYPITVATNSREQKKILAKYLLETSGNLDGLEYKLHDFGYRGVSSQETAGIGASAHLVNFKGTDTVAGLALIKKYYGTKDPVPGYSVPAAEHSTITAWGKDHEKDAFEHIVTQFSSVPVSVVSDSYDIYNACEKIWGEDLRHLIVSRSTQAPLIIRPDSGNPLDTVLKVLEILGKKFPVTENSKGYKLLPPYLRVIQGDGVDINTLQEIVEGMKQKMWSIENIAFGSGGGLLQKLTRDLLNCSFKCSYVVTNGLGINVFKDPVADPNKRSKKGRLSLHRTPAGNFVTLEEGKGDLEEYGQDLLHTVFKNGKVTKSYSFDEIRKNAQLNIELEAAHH
Could you give me the number in nM? Just the number is fine.

Here's what some known entries look like.
| compound | IC50 (nM) |
| --- | --- |
| O=C(NCc1ccn2ccnc2c1)c1ccc(C2CCN(C(=O)CC(F)(F)F)CC2)cc1 | 0.361 |
| O=C(NCc1ccn2ccnc2c1)c1ccc(C2CN(C(=O)CC3CC3)C2)cc1 | 0.471 |
| O=C(NCc1ccn2ccnc2c1)c1ccc(C2CCN(C(=O)C3CCC(F)(F)CC3)CC2)cc1 | 0.324 |
| N#CC1(C(=O)N2CCC(c3ccc(C(=O)NCc4ccn5ccnc5c4)s3)C2)CC1 (stereo not shown) | 0.839 |

INPUT: Tell me reported IC50 for O=C(Nc1ccc(C(=O)NCC2CCCCO2)cc1)Nc1ccc2ncc(Cl)n2c1 (stereo not shown) , tested with NAMPT (Homo sapiens, UniProt P43490).
OUTPUT: 0.36
